# Target under test: p38 MAPKα isoform (MAPK14) (Homo sapiens)
# Sequence (Q16539 whole entry, canonical isoform): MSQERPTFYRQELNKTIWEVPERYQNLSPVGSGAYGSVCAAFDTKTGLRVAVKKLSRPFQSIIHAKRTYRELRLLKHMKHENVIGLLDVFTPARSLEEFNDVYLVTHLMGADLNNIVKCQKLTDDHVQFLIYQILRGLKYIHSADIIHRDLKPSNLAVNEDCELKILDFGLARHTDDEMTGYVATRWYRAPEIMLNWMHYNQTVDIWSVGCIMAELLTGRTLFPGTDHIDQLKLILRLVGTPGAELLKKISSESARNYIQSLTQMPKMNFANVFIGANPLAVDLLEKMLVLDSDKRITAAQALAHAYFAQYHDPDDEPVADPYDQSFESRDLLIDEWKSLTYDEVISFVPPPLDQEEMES
# Protocol summary: Enzyme inhibition assay (FRET, Z-LYTE), p38 MAPKα via MAPKAP-K2 activation
# Condition context: read-out: Enzyme Inhibition IC50 p38α
Property: IC50 (nM)

Use these answered entries as a reference point.
{"columns": ["Cpd smiles", "Target under test", "Data value"],
 "data": [
  ["COCC(=O)Nc1nccc(Oc2ccc(NC(=O)Nc3cc(C(C)(C)C)nn3-c3ccc(OC)cc3)c(Cl)c2Cl)n1", "p38 MAPKα isoform (MAPK14) (Homo sapiens)", 15.7],
  ["CCNC(=O)Nc1cc(Oc2ccc(NC(=O)Nc3cc(C(C)(C)C)nn3-c3ccc(OC)cc3)c(Cl)c2Cl)ccn1", "p38 MAPKα isoform (MAPK14) (Homo sapiens)", 24.7],
  ["COCC(=O)Nc1cc(Oc2ccc(NC(=O)Nc3cc(C(C)(C)C)nn3-c3ccc(C)cc3)c(S(C)(=O)=O)c2)ccn1", "p38 MAPKα isoform (MAPK14) (Homo sapiens)", 37.7],
  ["COc1ccc(-n2nc(C(C)(C)C)cc2NC(=O)Nc2ccc(Oc3ccnc(NC(=O)NCCO)c3)c(Cl)c2Cl)cc1", "p38 MAPKα isoform (MAPK14) (Homo sapiens)", 21.6],
  ["COCC(=O)Nc1cc(Oc2ccc(NC(=O)Nc3cc(C(C)(C)C)nn3-c3ccc(C)cc3)cc2Br)ccn1", "p38 MAPKα isoform (MAPK14) (Homo sapiens)", 25.3]
]}

I: COc1ccc(-n2nc(C(C)(C)C)cc2NC(=O)Nc2ccc(Oc3ccnc(NC(=O)NC4CC4)c3)c(C#N)c2Cl)cc1
II: COCC(=O)Nc1cc(COc2ccc(NC(=O)Nc3cc(C(C)(C)C)nn3-c3ccc(OC)cc3)c3cccnc23)ccn1
III: CNC(=O)Nc1cc(Oc2ccc(NC(=O)Nc3cc(C(C)(C)C)nn3-c3ccc(O)cc3)c(Cl)c2Cl)ccn1
IV: COCC(=O)Nc1cc(Oc2ccc(NC(=O)Nc3cc(C(C)(C)C)nn3-c3ccc(C)cc3)c(Cl)c2)ccn1
V: CN(C)CCNC(=O)Nc1cc(Oc2ccc(NC(=O)Nc3cc(C(C)(C)C)nn3-c3ccc(CO)cc3)c(Cl)c2Cl)ccn1
*Q* Place the items in sequence of falling IC50. # the answer lists labels in the order requested
*A* I, II, III, IV, V
(I: 84.6 nM, II: 54.2 nM, III: 34.2 nM, IV: 18.8 nM, V: 3.5 nM)

a: CNC(=O)Nc1cc(Oc2ccc(NC(=O)Nc3cc(C(C)(C)C)nn3-c3ccc(C)cc3)c(Cl)c2Cl)ccn1
b: CN(C)CCCC(=O)Nc1cc(Oc2ccc(NC(=O)Nc3cc(C(C)(C)C)nn3-c3ccc(CO)cc3)c(Cl)c2Cl)ccn1
*Q* Please state the entry with greater IC50 among a and b . In your reply, give the label of the chosen option.
*A* a
(a: 41.2 nM, b: 2.2 nM)

1: COCC(=O)Nc1cc(Oc2ccc(NC(=O)Nc3cc(C(C)(C)C)nn3-c3ccc(C)cc3)c(Br)c2)ccn1
2: COCC(=O)Nc1cc(Oc2ccc(NC(=O)Nc3cc(C(C)(C)C)nn3-c3ccc(C)cc3)cc2C(F)(F)F)ccn1
*Q* Record comparison, field IC50: mark the lower of 1 and 2 . In your reply, give the label of the chosen option.
*A* 1
